Assay: Spectral properties of selected fluorinated fluoresceins and rhodols
Type: physicochemical
Settings: fluorescence quantum yield
Below, each entry is listed alongside its reported Quantum Yield.
VALUE_KIND: Quantum Yield

1) [N-]=[N+]=Nc1c(F)c(F)c2c(c1F)C1(OC2=O)c2ccc(O)cc2Oc2cc(O)ccc21 :: 0.92
2) O=C(O)CSc1c(F)c(F)c2c(c1F)C1(OC2=O)c2ccc(O)cc2Oc2cc(O)ccc21 :: 0.88
3) O=C(O)c1ccc(-c2c3cc(F)c(=O)cc-3oc3cc(O)c(F)cc23)c(S(=O)(=O)O)c1 :: 0.92
4) O=C1OC2(c3ccc(O)cc3Oc3cc(O)ccc32)c2ccccc21 [fluorescein, reference compound] :: 0.92
5) O=C1OC2(c3cc(Cl)c(O)cc3Oc3cc(O)c(Cl)cc32)c2c(F)c(F)c(F)c(F)c21 :: 0.80
